// provenance: patent US20140112915A1

# measuredOn: T1, Recombinant human IL-18 (human, UniProt Q14116 37-193)
# T1 sequence: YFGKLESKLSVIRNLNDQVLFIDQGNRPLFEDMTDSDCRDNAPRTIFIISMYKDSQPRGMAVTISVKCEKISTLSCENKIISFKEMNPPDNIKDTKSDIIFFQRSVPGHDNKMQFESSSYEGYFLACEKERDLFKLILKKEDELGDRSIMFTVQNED
# experimentalDetails: cell-based or functional assay
// values below are reported IC50, inhibition of IFN-γ release, human whole blood, recombinant human IL-18 (7 nM)
quantity: IC50, inhibition of IFN-γ release, human whole blood, recombinant human IL-18 (7 nM)

binder: MOR9464_N30E (antibody, human IgG1, lambda, L234A L235A, V domains shown) VH: EVQLVQSGAEVKKPGSSVKVSCKASGGTFESYAISWVRQAPGQGLEWMGNIIPMTGQTYYAQKFQGRVTITADESTSTAYMELSSLRSEDTAVYYCARAAYHPLVFDNWGQGTLVTVSS VL: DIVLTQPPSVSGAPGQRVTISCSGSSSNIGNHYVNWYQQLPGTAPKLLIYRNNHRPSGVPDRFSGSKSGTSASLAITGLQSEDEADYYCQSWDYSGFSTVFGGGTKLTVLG
number: 12.9
//
binder: MOR09441 (antibody, human IgG1, lambda, L234A L235A, V domains shown, also called MOR9441) VH: EVQLVQSGAEVKKPGSSVKVSCKASGGTFNSYAISWVRQAPGQGLEWMGWINPFYIGETFYAQKFQGRVTITADESTSTAYMELSSLRSEDTAVYYCARAAYHPLVFDNWGQGTLVTVSS VL: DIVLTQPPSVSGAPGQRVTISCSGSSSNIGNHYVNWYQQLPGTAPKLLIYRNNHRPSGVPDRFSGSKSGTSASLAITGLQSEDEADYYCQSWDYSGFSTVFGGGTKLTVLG
number: 8
